// data source = ChEMBL document CHEMBL4627350

Task for the reader: assign each of the following molecules its reported pIC50.
tested on: A-375; assay: Antiproliferative activity against human A375 cells assessed as cell growth inhibition incubated for 48 hrs by MTT assay; format: functional, cell-based; conditions: A-375, 48 h
Please treat pIC50 as minus the base-10 logarithm of the molar concentration.

**Q:** # lookup: pIC50 of OC(CNc1ccc(-c2ccccc2)cc1)COc1cccc2[nH]c3ccccc3c12 (racemic)
**A:** 4.87

**Q:** Moving on to COc1ccccc1N1CCN(CC(O)COc2cccc3[nH]c4ccccc4c23)CC1 (racemic)
**A:** 4.86

**Q:** Moving on to c1ccc(N2CCN(CCCOc3cccc4[nH]c5ccccc5c34)CC2)cc1
**A:** 4.65

**Q:** Moving on to O[C@@H](CNCc1ccc(-c2ccccc2)cc1)COc1cccc2[nH]c3ccccc3c12
**A:** 5.28

**Q:** Moving on to CC(C)NCC(O)COc1cccc2[nH]c3ccccc3c12 (stereo unspecified)
**A:** 4.45

**Q:** Moving on to COc1ccccc1OCCNCCCOc1cccc2[nH]c3ccccc3c12
**A:** 5.16

**Q:** Moving on to OC(COc1ccc(-c2ccccc2)cc1)CN1CCN(c2ccccc2)CC1 (racemic)
**A:** 4.85

**Q:** Moving on to Cc1ccc2cccc(NCC(O)COc3cccc4[nH]c5ccccc5c34)c2n1 (racemic)
**A:** 4.85

**Q:** Moving on to OC(COc1cccc2[nH]c3ccccc3c12)CN1CCN(c2ccccn2)CC1 (racemic)
**A:** 4.50

**Q:** Moving on to Cc1ccc2cccc(NCCCOc3cccc4[nH]c5ccccc5c34)c2n1
**A:** 4.65

**Q:** Moving on to COc1ccccc1N1CCN(CCCOc2cccc3[nH]c4ccccc4c23)CC1
**A:** 4.97

**Q:** Moving on to c1ccc(N2CCN(CCCOc3cccc4[nH]c5ccccc5c34)CC2)nc1
**A:** 4.86

**Q:** Moving on to OC(CNCc1ccc(-c2ccccc2)cc1)COc1cccc(Nc2ccccc2)c1 (racemic)
**A:** 5.70

**Q:** Moving on to OC(COc1ccc(-c2ccccc2)cc1)CN1CCN(c2ccccn2)CC1 (racemic)
**A:** 4.55

**Q:** Moving on to COc1ccccc1OCCNCC(O)COc1ccc(-c2ccccc2)cc1 (racemic)
**A:** 5.08

**Q:** Moving on to COc1ccccc1OCCNCC(O)COc1cccc2[nH]c3ccccc3c12 (stereo unspecified)
**A:** 4.89

**Q:** Moving on to c1ccc(Nc2cccc(OCCCNCc3ccc(-c4ccccc4)cc3)c2)cc1
**A:** 5.64

**Q:** Moving on to OC(COc1cccc2[nH]c3ccccc3c12)CN1CCN(c2ccccc2)CC1 (racemic)
**A:** 4.79

**Q:** Moving on to OC(CNCc1ccc(-c2ccccc2)cc1)COc1cccc2[nH]c3ccccc3c12 (racemic)
**A:** 5.25

**Q:** Moving on to COc1ccccc1OCCNCC(O)COc1ccc2ccccc2c1 (racemic)
**A:** 4.68

**Q:** Moving on to COc1ccccc1OCCNC[C@H](O)COc1cccc2[nH]c3ccccc3c12
**A:** 4.83

**Q:** Moving on to c1ccc(-c2ccc(CNCCCOc3cccc4[nH]c5ccccc5c34)cc2)cc1
**A:** 5.18

**Q:** Moving on to COc1ccccc1OCCNCC(O)COc1cccc2ccccc12 (racemic)
**A:** 4.72

**Q:** Moving on to CC(C)NCC(O)COc1ccc(-c2ccccc2)cc1 (racemic)
**A:** 4.96
